measured.target: HNF4alpha2 (COS-7 nuclear extract) (Homo sapiens, UniProt P41235 1-474)
Sequence: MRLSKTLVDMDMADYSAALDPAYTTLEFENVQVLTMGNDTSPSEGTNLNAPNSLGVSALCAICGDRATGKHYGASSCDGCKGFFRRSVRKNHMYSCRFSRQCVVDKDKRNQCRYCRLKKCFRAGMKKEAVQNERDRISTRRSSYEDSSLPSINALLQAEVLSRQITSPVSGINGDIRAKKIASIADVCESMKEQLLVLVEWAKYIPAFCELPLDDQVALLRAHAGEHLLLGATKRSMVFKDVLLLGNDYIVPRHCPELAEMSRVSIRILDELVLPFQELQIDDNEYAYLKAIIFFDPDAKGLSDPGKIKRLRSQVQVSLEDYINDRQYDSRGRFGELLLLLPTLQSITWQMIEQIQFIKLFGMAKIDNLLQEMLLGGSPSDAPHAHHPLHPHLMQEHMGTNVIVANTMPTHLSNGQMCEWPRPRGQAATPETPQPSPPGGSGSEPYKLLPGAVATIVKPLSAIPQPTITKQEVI
test.description: protein-binding microarray; COS-7 nuclear extract on double-stranded Agilent 4x180k PBM; binding buffer, salt, pH and temperature not given in the material; high values mean tight binding
condition: chain copies: 2; label: 3' end of strand 1 on the slide; dsDNA, one strand shown
In all, about 18,000 sequences were measured (“log2 normalized intensity”: median about 0.39, highest 2% from about 6.6 on). Many of the other results were omitted from the sample, so the highest values are more common in it than they were.
# binding signal per entry

[
  {
    "item.sequence": "CAGGGTCAATGTCCCCTTAGGAATAGTATCGCCTAGGGAGATTAGAGTATCGGTCGA",
    "binding signal (log2 normalized intensity)": 2.14
  },
  {
    "item.sequence": "AGACTTTTTTTTTCTTAATTGCCCTTTGCCGCCTAGGGAGATTAGAGTATCGGTCGA",
    "binding signal (log2 normalized intensity)": 4.26
  },
  {
    "item.sequence": "CCCTAATTACATATTAACCTTTGCCCCAGCGCCTAGGGAGATTAGAGTATCGGTCGA",
    "binding signal (log2 normalized intensity)": 6.63
  },
  {
    "item.sequence": "AGCAGATGGCCAGCCTTTGGACTTTGAACTGCCTAGGGAGATTAGAGTATCGGTCGA",
    "binding signal (log2 normalized intensity)": 10.7
  },
  {
    "item.sequence": "CTACAGGGTATGAATTTAACCTTTGCTCTCGCCTAGGGAGATTAGAGTATCGGTCGA",
    "binding signal (log2 normalized intensity)": 6.87
  },
  {
    "item.sequence": "ATATTAACCTTTGCCCCAGCTGTCACCCAGGCCTAGGGAGATTAGAGTATCGGTCGA",
    "binding signal (log2 normalized intensity)": 5.03
  },
  {
    "item.sequence": "ATGGCCAGCCTTTGGACTTTGAACTGCAACGCCTAGGGAGATTAGAGTATCGGTCGA",
    "binding signal (log2 normalized intensity)": 9.66
  },
  {
    "item.sequence": "CTCTGCAAACATTTATTTTGTGTGCTAGATGCCTAGGGAGATTAGAGTATCGGTCGA",
    "binding signal (log2 normalized intensity)": 1.54
  },
  {
    "item.sequence": "TGACCTTTGCATTCTTACCCAAGCCCCAAAGCCTAGGGAGATTAGAGTATCGGTCGA",
    "binding signal (log2 normalized intensity)": 3.73
  }
]

Data provenance is paper PMC10726135.
